Known survival rate of a selection of compounds
system: Candida albicans TIMM 1623; assay: Antifungal activity test (in vivo), mouse systemic infection model; conditions: 0.1 mg/kg s.c.; day 7
No unit in the answer, please; the number alone is enough.

C[C@@H](N1CC=C(c2ccccn2)CC1)[C@](O)(Cn1cncn1)c1ccc(F)cc1F ... 40

Respond only with survival rate recorded for OC(Cn1cncn1)(Cn1cncn1)c1ccc(F)cc1F [FLCZ, Fluconazole, reference compound]
40

Respond only with survival rate recorded for `C[C@@H](N1CC=C(c2ccc(Cl)cn2)CC1)[C@](O)(Cn1cncn1)c1ccc(F)cc1F`
80

Respond only with survival rate recorded for `C[C@@H](N1CCC(c2ccccn2)CC1)[C@](O)(Cn1cncn1)c1ccc(F)cc1F`
20
